- TARGET OR TEST SYSTEM: PDE2 (Bos taurus, UniProt P14099)
- Sequence (P14099 1-921): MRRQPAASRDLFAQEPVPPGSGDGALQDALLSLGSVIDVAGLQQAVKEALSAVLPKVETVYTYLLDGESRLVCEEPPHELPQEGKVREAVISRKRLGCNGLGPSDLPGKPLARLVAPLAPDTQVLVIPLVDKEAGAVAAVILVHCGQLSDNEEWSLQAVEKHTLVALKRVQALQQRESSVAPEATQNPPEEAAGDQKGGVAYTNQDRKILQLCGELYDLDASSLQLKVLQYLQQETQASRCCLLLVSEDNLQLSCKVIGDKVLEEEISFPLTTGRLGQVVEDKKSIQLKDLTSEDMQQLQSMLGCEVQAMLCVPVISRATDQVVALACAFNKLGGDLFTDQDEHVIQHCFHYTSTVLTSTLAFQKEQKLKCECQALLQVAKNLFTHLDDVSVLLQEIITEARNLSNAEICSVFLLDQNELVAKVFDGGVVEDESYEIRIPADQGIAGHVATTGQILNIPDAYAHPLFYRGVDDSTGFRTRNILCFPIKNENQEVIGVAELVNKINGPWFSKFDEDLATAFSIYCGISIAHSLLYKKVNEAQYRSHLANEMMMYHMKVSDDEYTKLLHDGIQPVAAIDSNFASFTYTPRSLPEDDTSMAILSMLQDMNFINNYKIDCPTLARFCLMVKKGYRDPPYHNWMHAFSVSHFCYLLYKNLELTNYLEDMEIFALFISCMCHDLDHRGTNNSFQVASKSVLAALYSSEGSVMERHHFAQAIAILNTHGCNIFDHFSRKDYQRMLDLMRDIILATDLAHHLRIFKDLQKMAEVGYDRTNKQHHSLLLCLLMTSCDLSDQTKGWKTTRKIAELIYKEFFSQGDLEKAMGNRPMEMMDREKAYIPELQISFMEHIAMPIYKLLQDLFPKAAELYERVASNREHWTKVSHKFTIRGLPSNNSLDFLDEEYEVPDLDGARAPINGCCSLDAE
- METHOD NOTES: Radioenzymatic phosphodiesterase assay: PDE2 inhibition
- Type: biochemical, bovine
- MEASUREMENT CONTEXT: read-out: PDE2 percentage of inhibition at 10 μM
For each of the compounds below, state its inhibition at 10 µM.
Reply with just the number (in %).

Indicate the recorded inhibition at 10 µM value for this compound: `CN1C(=O)CN=C(c2cccc(C#N)c2)c2cc(-c3ccccc3)c(Oc3ccccc3)cc21`
4

Indicate the recorded inhibition at 10 µM value for this compound: `CN1C(=O)CN=C(c2cccc(C(N)=O)c2)c2cc(-c3ccccc3)ccc21`
96

Indicate the recorded inhibition at 10 µM value for this compound: `N#Cc1cccc(C2=NCC(=O)Nc3cc(OC(F)(F)F)c(-c4ccccc4)cc32)c1`
70

Indicate the recorded inhibition at 10 µM value for this compound: `COc1cc2c(cc1-c1ccccc1)C(c1cccc(C#N)c1)=NCC(=O)N2C`
83

Indicate the recorded inhibition at 10 µM value for this compound: `COc1cc2c(cc1-c1ccccc1)C(c1ccc(C#CCNC(=O)OC(C)(C)C)cc1)=NCC(=O)N2C`
21

Indicate the recorded inhibition at 10 µM value for this compound: `COc1cc2c(cc1-c1ccccc1OC(C)C)C(c1cccc(C#N)c1)=NCC(=O)N2C`
98

Indicate the recorded inhibition at 10 µM value for this compound: `COc1cc2c(cc1-c1cccc(Cl)c1)C(c1cccc(C#N)c1)=NCC(=O)N2C`
96

Indicate the recorded inhibition at 10 µM value for this compound: `COc1ccccc1-c1cc2c(cc1Oc1ccccc1)N(C)C(=O)CN=C2c1cccc(C#N)c1`
95

Indicate the recorded inhibition at 10 µM value for this compound: `COc1ccc(-c2ccc3c(c2)C(c2cccc(C#N)c2)=NCC(=O)N3C)cc1OC`
95

Indicate the recorded inhibition at 10 µM value for this compound: `COc1ccc(-c2ccc3c(c2)C(c2cccc(C(N)=O)c2)=NCC(=O)N3C)cc1OC`
94

Indicate the recorded inhibition at 10 µM value for this compound: `COc1ccc(C2=NCC(=O)N(C)c3cc(OC)c(-c4cc(OC)ccc4OC)cc32)cc1`
99

Indicate the recorded inhibition at 10 µM value for this compound: `COc1cccc(OC)c1-c1ccc2c(c1)C(c1ccc(F)cc1)=NCC(=O)N2C`
96

Indicate the recorded inhibition at 10 µM value for this compound: `COc1ccc(OC)c(-c2ccc3c(c2)C(c2cccc(C#N)c2)=NCC(=O)N3C)c1`
98

Indicate the recorded inhibition at 10 µM value for this compound: `CCCCC#Cc1ccc(C2=NCC(=O)N(C)c3cc(OC)c(-c4ccccc4)cc32)cc1`
42

Indicate the recorded inhibition at 10 µM value for this compound: `CN1C(=O)CN=C(c2cccc(C(N)=O)c2)c2cc(-c3ccccc3Cl)c(Oc3ccccc3)cc21`
96

Indicate the recorded inhibition at 10 µM value for this compound: `COc1cc2c(cc1-c1ccc(Cl)cc1)C(c1cccc(C#N)c1)=NCC(=O)N2C`
91

Indicate the recorded inhibition at 10 µM value for this compound: `COc1cc2c(cc1-c1ccc(C(C)=O)cc1)C(c1cccc(C#N)c1)=NCC(=O)N2C`
97
